Target: human TGR5 (Homo sapiens)
Construct: expressed in transfected cells; host or cells: HEK293
Sequence (Q8TDU6 whole entry): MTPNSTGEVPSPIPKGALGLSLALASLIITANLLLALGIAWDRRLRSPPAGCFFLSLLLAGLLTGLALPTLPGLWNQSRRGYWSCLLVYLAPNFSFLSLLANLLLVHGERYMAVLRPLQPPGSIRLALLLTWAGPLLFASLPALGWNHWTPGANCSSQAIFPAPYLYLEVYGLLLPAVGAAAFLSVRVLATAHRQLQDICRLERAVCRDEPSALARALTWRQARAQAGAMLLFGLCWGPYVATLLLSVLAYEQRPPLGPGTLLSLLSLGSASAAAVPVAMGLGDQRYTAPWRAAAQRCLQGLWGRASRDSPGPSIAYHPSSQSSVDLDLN
Assay: Cell-based TGR5 assay (cAMP generation, HTRF)
Settings: HEK293 cells stably transfected with human TGR5; cAMP by HTRF; 30 minutes at 37° C.; read-out: pEC50 Human TGR5 (converted)
Property: EC50; scope: individual compounds

[
  {
    "COMPOUND": "O=C(NCCCC1(c2ccc(Cl)c(CNC3(c4cnccc4-c4ccccc4OC4CC4)CC3)c2)CC1)NC[C@H](O)[C@@H](O)[C@H](O)[C@H](O)CO",
    "ASSAY_TARGET": "human TGR5 (Homo sapiens)",
    "MEASURED_ENDPOINT": "EC50",
    "VALUE_OBSERVED": "< 100 nM"
  },
  {
    "COMPOUND": "N[C@@H](CCCCNS(=O)(=O)c1ccc(COC2(c3cnccc3-c3ccccc3OC3CC3)CC2)c(Cl)c1)C(=O)O",
    "ASSAY_TARGET": "human TGR5 (Homo sapiens)",
    "MEASURED_ENDPOINT": "EC50",
    "VALUE_OBSERVED": "< 100 nM"
  },
  {
    "COMPOUND": "FC(F)(F)Oc1ccccc1-c1ccncc1C1(NCc2cc(Cl)ccc2Cl)CC1",
    "ASSAY_TARGET": "human TGR5 (Homo sapiens)",
    "MEASURED_ENDPOINT": "EC50",
    "VALUE_OBSERVED": "126 to 1000 nM"
  },
  {
    "COMPOUND": "C[C@@H](CCCCN)c1ccc(Cl)c(COC2(c3cnccc3-c3ccccc3OC3CC3)CC2)c1 (single isomer, unassigned)",
    "ASSAY_TARGET": "human TGR5 (Homo sapiens)",
    "MEASURED_ENDPOINT": "EC50",
    "VALUE_OBSERVED": "126 to 1000 nM"
  }
]

Query :: Fill blank: measured EC50 of the compound O=C(NCCCCNS(=O)(=O)c1ccc(Cl)c(COC2(c3cnccc3-c3ccccc3OC3CC3)CC2)c1)NC[C@H](O)[C@@H](O)[C@H](O)[C@H](O)CO (stereo in doubt) is ____.
Result :: < 100 nM

Query :: Now the same for O=C(NCCCCc1ccc(Cl)c(CNC2(c3cnccc3-c3ccccc3OC3CC3)CC2)c1)NC[C@H](O)[C@@H](O)[C@H](O)[C@H](O)CO (stereo in doubt) [Compound I-241]
Result :: 126 to 1000 nM

Query :: Now the same for O=C(NCCOCCSc1ccc(Cl)c(COC2(c3cnccc3-c3ccccc3OC3CC3)CC2)c1)N[C@@H](CO)[C@@H](O)[C@H](O)[C@H](O)CO
Result :: < 100 nM

Query :: Now the same for Cc1ccc(SCCCCC(=O)NC[C@H](O)[C@@H](O)[C@H](O)[C@H](O)CO)nc1COC1(c2cnccc2-c2ccccc2OC2CC2)CC1
Result :: 1260 to 10000 nM

Query :: Now the same for O=C(NCCCCCOc1ccc(Cl)c(COC2(c3cnccc3-c3ccccc3OC3CC3)CC2)c1)NC[C@H](O)[C@@H](O)[C@H](O)[C@H](O)CO
Result :: 126 to 1000 nM

Query :: Now the same for Fc1ccc(-c2ccncc2C2(NCc3cc(Cl)ccc3Cl)CC2)c(OC2CC2)c1
Result :: < 100 nM

Query :: Now the same for CC(=O)NCCN(CCCCSc1ccc(Cl)c(COC2(c3cnccc3-c3ccccc3OC3CC3)CC2)c1)C(=O)[C@@H](O)[C@@H](O)[C@H](O)[C@@H](O)CO
Result :: < 100 nM

Query :: Now the same for CC(CCCCCNC(=O)NC[C@H](O)[C@@H](O)[C@H](O)[C@H](O)CO)c1ccc(Cl)c(CNC2(c3cnccc3-c3ccccc3OC3CC3)CC2)c1 (stereo partly drawn)
Result :: < 100 nM

The origin of these recorded values is patent US12084472B2.
